B1: NETO1 (parent)
chain: GFSPIIGRFCGQQNPPVIKSSGRF

- Variants of: B1
- Method: protein stability index of a GFP-peptide fusion (GPS, HEK-293T) (PSI 1-6); higher = more stable;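 note: lentivirally expressed fusions sorted by FACS into six bins by GFP to DsRed ratio, PSI derived from sequencing read proportions per bin multiplied by bin number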
- Measurement Setup: c terminus: a fixed tail appended
Measurement Kind: protein stability index
Could you keep your reply to the number by itself?

Reference set, count: 2
| Variant Designation | Value |
| --- | --- |
| P15W | 2.13 |
| K19A | 2.27 |

# lookup: protein stability index of "V17P"
2.22

# lookup: protein stability index of "V17S"
2.3

# lookup: protein stability index of "I6F"
2.16

# lookup: protein stability index of "G22I"
1.73
